# credit: PubChem BioAssay (NCI)

# Test system: NCI-H460 lung
Your reply should match one of these outcome classes. active, inactive

Here's what some known entries look like.
COMPOUND	ASSIGNED_CATEGORY
COc1ccc(-c2n[nH]nc2-c2csc3ccccc23)cc1OC	inactive
ClCCN(CCCl)c1ccc(-n2cnc3c(Cl)ncnc32)cc1	inactive
O=C(COc1cccc(/C=C2\COc3ccccc3C2=O)c1)Nc1nccs1	inactive
CC(C)=CCc1c(O)cc(/C=C/c2cc(O)c3c(c2)C[C@@H]2C(C)(C)[C@H](O)[C@H](O)C[C@@]2(C)O3)cc1O	active
COc1ccc2c(c1)c(C1(c3cn(C)c4ccc(OC)cc34)C(=O)Nc3ccc(F)cc31)cn2C	inactive
CCC(Sc1nnc2c3ccccc3n(CC)c2n1)C(=O)Nc1ccccc1OC (centres undefined)	inactive
CCc1c2c(nc3cc4c(cc13)OCO4)-c1cc3c(c(=O)n1C2)COC(=O)[C@@]3(CC)OC(=O)CN	active
CCCN(CCC)c1ccc(CO)c(C)c1	inactive

Please examine the following record next.
input: Answer briefly: the call reported for COCCOC(=O)C1=C(C)NC2=C(C(=O)CC(c3ccccc3OC)C2)C1c1cccc(O)c1 (centres undefined) in this assay.
output: inactive
